Field: melting point. Provide a value for each of the compounds that follow.
Counter-ions that a name gives are not always drawn.
Respond numerically; units are °C and should not be typed.

Could you share which melting point value was measured for CCCN1CCN(c2cc(F)cc(C(F)(F)F)c2)CC1 (as salt: HCl) ?
242

Same read-out for CCCN1[C@H](C)CN(c2ccc(F)c(C(F)(F)F)c2)C[C@@H]1C (as salt: HCl) [Example 34] ?
221

Same read-out for CCCN1CCN(c2ccc(Cl)c(C(F)(F)F)c2)CC1 (as salt: HCl) ?
268

Same read-out for CCCN1CCC(c2cc(F)cc(C(F)(F)F)c2)CC1 (as salt: HCl) [Example 44] ?
215

Same read-out for CCCN1CCN(c2cc(C(F)(F)F)ccc2Cl)CC1 (as salt: HCl) ?
234

Same read-out for CCCN1[C@H](C)CN(c2ccc(Cl)c(Cl)c2)C[C@@H]1C (as salt: HCl) [Example 35] ?
225

Same read-out for CCCN1CCN(c2ccc(F)c(C(F)(F)F)c2)CC1 (as salt: HCl) ?
238

Same read-out for CCCN1[C@H](C)CN(c2ccc(Cl)c(C(F)(F)F)c2)C[C@@H]1C (as salt: HCl) [Example 33] ?
256

Same read-out for CCCN1CCN(c2ccc(Cl)c([N+](=O)[O-])c2)CC1 (as salt: HCl) [Example 19] ?
249
